experiment: Pharmacokinetic parameters in SD rats; assay type: in vivo, Sprague-Dawley rats; conditions: single oral 3 mg/kg in 30% PEG400, plasma
// reported tmax (mean ± SD) for each item listed

# compound, units-text, tmax (mean ± SD)
rows = [
    ("[2H]C([2H])([2H])C([2H])([2H])Oc1ccc(Cc2cc([C@@H]3O[C@H](CO)[C@@H](O)[C@H](O)[C@H]3O)ccc2Cl)cc1 [24c]", "min", 82.8),
    ("[2H]C([2H])(C)Oc1ccc(Cc2cc([C@@H]3O[C@H](CO)[C@@H](O)[C@H](O)[C@H]3O)ccc2Cl)cc1 [24a]", "min", 52.8),
    ("CCOc1ccc(Cc2cc([C@@H]3O[C@H](CO)[C@@H](O)[C@H](O)[C@H]3O)ccc2Cl)cc1 [Ref A, reference compound]", "min", 52.8),
]

---

target: human SGLT2 (Homo sapiens); construct: A full-length cDNA clone expressing human SGLT2 (GenScript Corporation); test: Methyl-α-D-[U-14C]glucopyranoside uptake assay, cells stably expressing human SGLT2; conditions: HEK293.ETN cells expressing human SGLT2; 25% human serum; 1.5 hours
Sequence (P31639 whole entry): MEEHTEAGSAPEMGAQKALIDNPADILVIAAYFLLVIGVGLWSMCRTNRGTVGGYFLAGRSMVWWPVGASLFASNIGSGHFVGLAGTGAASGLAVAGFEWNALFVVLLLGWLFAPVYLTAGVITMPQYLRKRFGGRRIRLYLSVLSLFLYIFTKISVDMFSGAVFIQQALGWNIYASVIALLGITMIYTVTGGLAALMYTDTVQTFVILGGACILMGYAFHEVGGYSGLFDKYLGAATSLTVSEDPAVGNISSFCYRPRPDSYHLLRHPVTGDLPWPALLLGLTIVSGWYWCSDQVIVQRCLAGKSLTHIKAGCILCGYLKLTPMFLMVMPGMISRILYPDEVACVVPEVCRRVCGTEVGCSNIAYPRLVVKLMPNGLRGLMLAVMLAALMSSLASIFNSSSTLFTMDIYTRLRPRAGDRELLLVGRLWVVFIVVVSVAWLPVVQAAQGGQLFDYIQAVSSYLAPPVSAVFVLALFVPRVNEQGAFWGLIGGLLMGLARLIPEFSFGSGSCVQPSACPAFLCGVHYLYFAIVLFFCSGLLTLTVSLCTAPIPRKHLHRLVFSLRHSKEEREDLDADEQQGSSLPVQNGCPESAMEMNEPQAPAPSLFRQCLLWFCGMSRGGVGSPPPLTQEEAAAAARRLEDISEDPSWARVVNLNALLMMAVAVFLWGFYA
pIC50: −log10 of the molar value.
Measured pIC50 accompanies every entry in the list below.
measurement-label: pIC50

# molecule, target-under-test, obs-value
rows = [
    ("[2H]C([2H])([2H])Oc1ccc(C([2H])([2H])c2cc([C@@H]3O[C@H](CO)[C@@H](O)[C@H](O)[C@H]3O)ccc2Cl)cc1 [compound 19]", "human SGLT2 (Homo sapiens)", 9.10),
    ("COc1ccc(Cc2cc([C@@H]3O[C@H](CO)[C@@H](O)[C@H](O)[C@H]3O)ccc2Cl)cc1 [Ref B, reference compound]", "human SGLT2 (Homo sapiens)", 8.72),
]

---

assay: Pharmacokinetic parameters in SD rats; assay type: in vivo, Sprague-Dawley rats; settings: single oral 3 mg/kg in 30% PEG400, plasma

# compound, units-text, Cmax (mean ± SD)
data = [
    ("CCOc1ccc(Cc2cc([C@@H]3O[C@H](CO)[C@@H](O)[C@H](O)[C@H]3O)ccc2Cl)cc1 [Ref A, reference compound]", "ng/mL", 1603),
    ("[2H]C([2H])([2H])C([2H])([2H])Oc1ccc(Cc2cc([C@@H]3O[C@H](CO)[C@@H](O)[C@H](O)[C@H]3O)ccc2Cl)cc1 [24c]", "ng/mL", 2285),
    ("[2H]C([2H])(C)Oc1ccc(Cc2cc([C@@H]3O[C@H](CO)[C@@H](O)[C@H](O)[C@H]3O)ccc2Cl)cc1 [24a]", "ng/mL", 2923),
    ("[2H]C([2H])(c1ccc(OCC)cc1)c1cc([C@@H]2O[C@H](CO)[C@@H](O)[C@H](O)[C@H]2O)ccc1Cl [compound 9]", "ng/mL", 1830),
    ("[2H]C([2H])(c1ccc(OC([2H])([2H])C([2H])([2H])[2H])cc1)c1cc([C@@H]2O[C@H](CO)[C@@H](O)[C@H](O)[C@H]2O)ccc1Cl [compound 16]", "ng/mL", 2683),
    ("COc1ccc(Cc2cc([C@@H]3O[C@H](CO)[C@@H](O)[C@H](O)[C@H]3O)ccc2Cl)cc1 [Ref B, reference compound]", "ng/mL", 1638),
    ("[2H]C([2H])([2H])Oc1ccc(Cc2cc([C@@H]3O[C@H](CO)[C@@H](O)[C@H](O)[C@H]3O)ccc2Cl)cc1 [24d]", "ng/mL", 1494),
]
